TARGET: UniProt P62508
PROTOCOL_DETAILS: Protein thermal shift assay
Assay type: binding
APPLIED_CONDITIONS: compound at 20 μM; ERR gamma protein 0.1 mg/mL, SYPRO-Orange; read-out: T.S. (thermal shift) range
Listed here: items and their measured ΔTm at 20 µM.

O=C(Nc1cccc(C(F)(F)F)c1)c1ccc(-c2ccc(O)cc2)s1 ... 0 to 2 °C

Name the recorded ΔTm at 20 µM of the item CC(C)Cc1ccc(-c2ccc(C(=O)Nc3ccncc3)s2)cc1 in your answer.
2 to 4 °C

Name the recorded ΔTm at 20 µM of the item O=C(Nc1ccc(O)cc1)c1nc(-c2ccsc2)cs1 in your answer.
0 to 2 °C

Name the recorded ΔTm at 20 µM of the item O=C(Nc1cccc(F)c1)c1ncc(-c2ccc(O)cc2)s1 in your answer.
> 4 °C

Name the recorded ΔTm at 20 µM of the item CC(C)c1cccc(NC(=O)c2ccc(-c3cccc(O)c3)s2)c1 in your answer.
0 to 2 °C

Name the recorded ΔTm at 20 µM of the item CC(C)Cc1ccc(-c2ccc(C(=O)Nc3cccnc3)s2)cc1 in your answer.
0 to 2 °C

Name the recorded ΔTm at 20 µM of the item O=C(Nc1ccc(Cl)cc1)c1cc(-c2cccc(O)c2)[nH]n1 in your answer.
2 to 4 °C

Name the recorded ΔTm at 20 µM of the item O=C(Nc1ccc2ncsc2c1)c1ccc(-c2cccc(O)c2)o1 in your answer.
0 to 2 °C

Name the recorded ΔTm at 20 µM of the item O=C(Nc1cccc(F)c1)c1ncc(-c2cccc(O)c2)s1 in your answer.
> 4 °C

Name the recorded ΔTm at 20 µM of the item O=C(Nc1cccc(O)c1)c1nc(-c2ccsc2)cs1 in your answer.
0 to 2 °C

Name the recorded ΔTm at 20 µM of the item O=C(Nc1cccc(B(O)O)c1)c1ccc(-c2cccc(F)c2)s1 in your answer.
2 to 4 °C

====

Listed here: items and their measured ΔTm at 20 µM.
TARGET: ERR gamma protein (Homo sapiens)
Sequence (P62508 1-458): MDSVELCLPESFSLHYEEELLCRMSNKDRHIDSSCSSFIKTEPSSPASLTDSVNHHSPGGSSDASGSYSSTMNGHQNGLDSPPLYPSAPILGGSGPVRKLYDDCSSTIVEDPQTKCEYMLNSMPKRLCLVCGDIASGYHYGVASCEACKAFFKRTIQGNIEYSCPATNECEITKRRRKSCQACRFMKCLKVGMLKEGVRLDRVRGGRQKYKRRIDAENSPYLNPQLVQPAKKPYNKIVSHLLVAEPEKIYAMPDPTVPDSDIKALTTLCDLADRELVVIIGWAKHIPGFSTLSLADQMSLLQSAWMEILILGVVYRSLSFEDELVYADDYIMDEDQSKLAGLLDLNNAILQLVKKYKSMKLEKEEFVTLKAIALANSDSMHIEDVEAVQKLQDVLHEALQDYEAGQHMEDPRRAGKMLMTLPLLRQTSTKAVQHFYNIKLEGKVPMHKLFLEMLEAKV
PROTOCOL_DETAILS: Protein thermal shift assay
Format: binding
APPLIED_CONDITIONS: compound at 20 μM; ERR gamma protein 0.1 mg/mL, SYPRO-Orange; read-out: T.S. (thermal shift) range

Name the recorded ΔTm at 20 µM of the item O=C(Nc1ccc2ccccc2c1)c1cc(-c2cccc(O)c2)[nH]n1 [Compound 123] in your answer.
2 to 4 °C

Name the recorded ΔTm at 20 µM of the item O=C(NCc1ccccc1)c1ccc(-c2ccc(Cl)cc2)s1 [Compound 2] in your answer.
2 to 4 °C

Name the recorded ΔTm at 20 µM of the item CC(C)Oc1ccc(-c2ccc(C(=O)Nc3cccnc3)s2)cc1 [Compound 115] in your answer.
0 to 2 °C

Name the recorded ΔTm at 20 µM of the item O=C(Nc1ccc(O)cc1)c1coc(-c2ccsc2)n1 [Compound 10] in your answer.
0 to 2 °C

Name the recorded ΔTm at 20 µM of the item O=C(Nc1ccc(Cl)cc1)c1ccc(-c2cccc(C(F)(F)F)c2)s1 [Compound 107] in your answer.
0 to 2 °C

Name the recorded ΔTm at 20 µM of the item CC(C)c1ccc(-c2ccc(C(=O)Nc3ccc(O)cc3)s2)cc1 [Compound 13] in your answer.
0 to 2 °C

Name the recorded ΔTm at 20 µM of the item COc1ccc(NC(=O)c2ccc(-c3ccsc3)s2)cc1 [Compound 73] in your answer.
0 to 2 °C

Name the recorded ΔTm at 20 µM of the item O=C(Nc1cccnc1)c1ccc(-c2ccsc2)s1 [Compound 103] in your answer.
0 to 2 °C

Name the recorded ΔTm at 20 µM of the item O=C(Nc1ccc(C(F)(F)F)cc1)c1ccc(-c2ccc(O)cc2)s1 [Compound 68] in your answer.
0 to 2 °C

Name the recorded ΔTm at 20 µM of the item O=C(Nc1ccc2ccccc2c1)c1ccc(-c2ccc(O)cc2)s1 [Compound 31] in your answer.
0 to 2 °C

Name the recorded ΔTm at 20 µM of the item O=C(Nc1ccncc1)c1ccc(-c2cccc(C(F)(F)F)c2)s1 [Compound 109] in your answer.
2 to 4 °C

====

TARGET: ERR gamma protein (Homo sapiens)
Sequence (P62508 1-458): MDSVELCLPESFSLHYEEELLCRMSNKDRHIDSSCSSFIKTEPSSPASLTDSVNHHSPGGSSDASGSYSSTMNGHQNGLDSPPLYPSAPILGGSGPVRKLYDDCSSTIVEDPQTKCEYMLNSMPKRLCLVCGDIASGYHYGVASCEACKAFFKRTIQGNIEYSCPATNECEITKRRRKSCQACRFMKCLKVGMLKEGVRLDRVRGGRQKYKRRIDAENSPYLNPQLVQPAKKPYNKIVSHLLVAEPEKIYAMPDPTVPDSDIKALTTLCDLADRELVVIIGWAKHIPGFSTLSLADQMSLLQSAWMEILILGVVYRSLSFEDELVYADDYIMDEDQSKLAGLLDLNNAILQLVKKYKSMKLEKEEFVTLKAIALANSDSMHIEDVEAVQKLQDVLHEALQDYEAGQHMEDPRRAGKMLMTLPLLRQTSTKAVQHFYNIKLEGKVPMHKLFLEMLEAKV
PROTOCOL_DETAILS: Protein thermal shift assay
Type: binding
APPLIED_CONDITIONS: compound at 20 μM; ERR gamma protein 0.1 mg/mL, SYPRO-Orange; read-out: T.S. (thermal shift) range
METRIC_NAME: ΔTm at 20 µM

# example entries with known answers
O=C(Nc1ccc(Cl)cc1)c1cc(-c2ccc(O)cc2)[nH]n1 ... 2 to 4 °C
N#Cc1cccc(-c2ccc(C(=O)Nc3ccc(O)cc3)s2)c1 ... 2 to 4 °C
COc1ccc(NC(=O)c2ccc(-c3ccc(N)cc3)s2)cc1 ... 0 to 2 °C
N#Cc1ccc(-c2ccc(C(=O)Nc3cccnc3)s2)cc1 ... 0 to 2 °C
O=C(Nc1ccc(O)cc1)c1ccc(-c2ccc(C(F)(F)F)cc2)s1 ... 2 to 4 °C
O=C(Nc1cccc(F)c1)c1ccc(-c2ccc3[nH]ccc3c2)s1 ... 2 to 4 °C

Name the recorded ΔTm at 20 µM of the item CC(C)c1ccc(-c2ccc(C(=O)Nc3cccc(O)c3)s2)cc1 in your answer.
0 to 2 °C

Name the recorded ΔTm at 20 µM of the item O=C(Nc1cccnc1)c1ccc(-c2cccc(F)c2)s1 in your answer.
0 to 2 °C

Name the recorded ΔTm at 20 µM of the item CC(C)c1cccc(-c2ccc(C(=O)Nc3ccncc3)s2)c1 in your answer.
0 to 2 °C

Name the recorded ΔTm at 20 µM of the item Clc1ccc(-c2ccc(CNCc3ccccc3)s2)cc1 in your answer.
0 to 2 °C

====

TARGET: ERR gamma protein (Homo sapiens)
PROTOCOL_DETAILS: Protein thermal shift assay
Type: binding
APPLIED_CONDITIONS: compound at 20 μM; ERR gamma protein 0.1 mg/mL, SYPRO-Orange; read-out: T.S. (thermal shift) range
METRIC_NAME: ΔTm at 20 µM

N#Cc1ccc(-c2ccc(C(=O)Nc3ccc(Cl)cc3)s2)cc1 ... 0 to 2 °C
O=C(Nc1ccccc1F)c1ccc(-c2cccc(O)c2)s1 ... 0 to 2 °C
O=C(Nc1ccc(Cl)cc1)c1ccc(-c2ccc(C(F)(F)F)cc2)s1 ... 0 to 2 °C
O=C(Nc1ccccc1F)c1ccc(-c2cccc(B(O)O)c2)s1 ... 0 to 2 °C
O=C(Nc1cccnc1)c1ccc(-c2ccc(F)cc2)s1 ... 0 to 2 °C

Name the recorded ΔTm at 20 µM of the item O=C(Nc1cccnc1)c1ccc(-c2ccc(C(F)(F)F)cc2)s1 in your answer.
0 to 2 °C

Name the recorded ΔTm at 20 µM of the item CC(C)c1ccc(-c2ccc(C(=O)Nc3ccncc3)s2)cc1 in your answer.
2 to 4 °C

Name the recorded ΔTm at 20 µM of the item O=C(Nc1ccc(C(F)(F)F)cc1)c1ccc(-c2ccncc2)s1 in your answer.
0 to 2 °C

Name the recorded ΔTm at 20 µM of the item CC(C)c1ccc(-c2ccc(C(=O)Nc3ccccn3)s2)cc1 in your answer.
0 to 2 °C

Name the recorded ΔTm at 20 µM of the item CCOc1ccc(NC(=O)c2ccc(-c3cccc(N)c3)s2)cc1 in your answer.
> 4 °C

Name the recorded ΔTm at 20 µM of the item Nc1ccc(-c2ccc(C(=O)NCc3cccc(F)c3)o2)cc1 in your answer.
0 to 2 °C

Name the recorded ΔTm at 20 µM of the item Cc1ccc(-c2ccc(C(=O)Nc3ccc(Cl)cc3)s2)cc1C in your answer.
0 to 2 °C

Name the recorded ΔTm at 20 µM of the item O=C(Nc1ccc(Cl)cc1)c1ccc(-c2ccc(F)cc2)s1 in your answer.
0 to 2 °C

Name the recorded ΔTm at 20 µM of the item Nc1cccc(-c2ccc(C(=O)NCc3ccccc3)s2)c1 in your answer.
0 to 2 °C
